- test-summary: Pharmacokinetics for CPT in human plasma (lactone ring intact)
- Assay type: in vitro ADME
- test-parameters: read-out: half-life time of the drug with the lactone ring intact
value-type: half-life

Request: Could you tell me which half-life is on file for CC[C@@]1(O)C(=O)OCc2c1cc1n(c2=O)Cc2cc3ccccc3nc2-1 [CPT, camptothecin, reference compound] ?
Response: ~30 min
